Below is a list of entries, each paired with its recorded TGI value.
Tested on: HCT-15 colon
method description: NCI tumour cell line growth inhibition, 48 h
observation type: TGI

* Cn1c(=O)cc(Nc2ccc(N)cc2)[nH]c1=O | > 100 µM
* Cc1[nH]nc(C(=O)N/N=C/c2ccccc2Cl)c1N=NN(C)C | > 100 µM
* C#CCn1c(=O)ccn(/C(=C/C(=O)OCC)C(=O)OCC)c1=O | 7.8 µM
* CC#CC#C/C(=C/C=CC(=O)OC)SC | > 100 µM
* CN(C)CCCCNc1ccc(NCCCCN(C)C)c2c1C(=O)c1c(O)ccc(O)c1C2=O | 2.93 µM
* CCN(CC)C(=O)CC12CCCCC1=Nc1ccccc12 (stereo not given) | > 100 µM
* COc1ccc([C@@H]2OC(=O)C3C2C(=O)O[C@H]3c2ccc(OC)cc2)cc1 (stereo not given in full) | > 100 µM
* CON[N+]([O-])=NC(C)C | > 100 µM
* O=C(Cc1nc2ccccc2o1)C(=O)Nc1ccc(Cl)cc1Cl | > 100 µM
* C[C@]12CCc3nn(-c4ccccc4)nc3C1CC[C@@H]1C2CC[C@]2(C)C(=O)CCC12 (stereo not given in full) | > 100 µM
* CC1(C)N([O-])[N+](=O)C1(C)O (stereo not given) | > 100 µM
* CN(Cc1cnc2nc(N)nc(N)c2n1)c1ccc(C(=O)NCCCC(=O)O)cc1 | > 100 µM
* CCOC(=O)C(=O)C(C#N)c1ccc(Cl)cc1 (stereo not given) | > 100 µM
* COC(=O)[C@H](Cc1ccccc1)NC(=O)N(CCNC(=O)OC(C)(C)C)c1ccccc1 | > 100 µM
* CCCCCCCCCCCCCCCC(=O)OC1C(O)C(O)C(O)C(O)C12CO2 (stereo not given) | 63.5 µM
* O=C(CC(=O)c1cccc([N+](=O)[O-])c1)C(=O)Nc1ccccc1 | > 100 µM
* CCN(CC)CCSc1c(C(C)=O)c(=O)n(-c2ccccc2)c(=S)n1-c1ccccc1 | 8.86 µM
* Fc1ccc(Nc2nc3nonc3nc2Nc2ccc(I)cc2)cc1 | 10.5 µM
* Nc1ncnc2c1ccn2-c1cccc(NC(=O)c2ccc(N3CCOCC3)c(C(F)(F)F)c2)c1 | 10.4 µM
* CC(=O)Nc1ccc(C2=N/C(=C\c3ccc(Cl)cc3)C(=O)O2)cc1 | 37.1 µM
* C=C(C)COc1cc(NC(=S)OC(C)C)ccc1Cl | 30.6 µM
* CCCCCCCCCCCCc1ccsc1-c1ccc(-c2ccc(-c3sccc3CCCCCCCCCCCC)s2)s1 | > 100 µM
* C=CCOCn1cnc2c(=O)[nH]c(N)nc21 | > 100 µM
* CC/C(=C(/c1ccc(OCCN(C)C)cc1)c1ccc(OC(=O)CCCCCCCCC(=O)c2c(C)[nH]c(/C=C3\N=C(c4ccc[nH]4)C=C3OC)c2C)cc1)c1ccccc1 | 97.8 µM
* COC(=O)C1=CCC2c3[nH]c4ccccc4c3CCN2C1 (stereo not given) | > 354 µM
* COc1cc(C2CC(c3cccc(Nc4ccnc5cc(Cl)ccc45)c3)=NN2c2ccccc2)cc(OC)c1OC (stereo not given) | > 100 µM
* C=C1CC[C@@H]2[C@](C)(COC(=O)CCC(=O)O)CCC[C@@]2(C)[C@@H]1CCC1=CC(=O)OC1 | > 100 µM
* O[C@@]12Cc3c([nH]c4ccccc34)[C@@H]3Oc4c(-c5ccccc5)ccc5c4[C@@]31CCN(CC1CC1)[C@@H]2C5 | 4.06 µM
* C=C(C)[C@H]1CC(=O)[C@@]2(C)C[C@H]3O[C@]3(C)CC/C=C(\C)CC[C@H]12 | > 100 µM
* CC(C)CC1N=C(OCc2ccccc2)OC1=O (stereo not given) | > 100 µM
* CO/C(=C1/NC(=O)C(Cc2ccc(O)c(Br)c2)N(C)C(=O)C(C)NC(=O)CCC/C=C(\C)CCC(C)OC1=O)c1ccccc1 (stereo not given) | 13.4 µM
* COc1cccc(/C=N/[N-]C(N)=O)c1[O-].[Co+2].[OH3+].c1ccncc1 | > 100 µM
* CC(C)[Si](Oc1ccc(CC2N(C(=O)c3ccc([N+](=O)[O-])cc3)C(CCc3ccccc3)CC2(C)C=O)cc1)(C(C)C)C(C)C (stereo not given) | > 100 µM
* O=C1OCC2=C1C(c1cccc(Cl)c1)c1cc3c(cc1N2CCO)CCC3 (stereo not given) | 12.6 µM
* Cc1cc(C)nc(NS(=O)(=O)c2ccc(NC(=O)COC(=O)c3cccc4c(=O)c5ccccc5[nH]c34)cc2)n1 | > 100 µM
* CC(C)C(/C=C/c1ccc(Cl)cc1)=N\NC(=O)N/N=C(/C=C/c1ccc(Cl)cc1)C(C)C | > 100 µM
* O=C(/C=C/C=C/c1ccc2c(c1)OCO2)N/N=C\c1ccc(O)cc1O | 21.4 µM
* Clc1ccccc1C1SCc2nc3ccccc3n21 (stereo not given) | > 100 µM
* COC(=O)Nc1nc2ccc(C(=O)c3ccc(F)cc3)cc2[nH]1 | > 100 µM
* CCCCCCCCCCCCCCCCCCOc1ccccc1COP(=O)(O)OOCC[N+](C)(C)C | 7.87 µM
